- Species on record: Rattus norvegicus
- Assay: Open TG-GATES - Regimen: Single
- Type: toxicity, organism-based, Sprague-Dawley
- Parameters: regimen Single, gender Male, age 6 weeks
- Settings: in vivo, po, 0 mg/kg, 9 h, tissue Blood, route gavage, dose level Control
Recorded Endpoint: WBC (x10_2/uL)

| Molecule | Value Measured |
| --- | --- |
| CC(C)N(CCC(C(N)=O)(c1ccccc1)c1ccccn1)C(C)C (stereo not given) [DISOPYRAMIDE] | 90.9 |
| CCc1oc2ccccc2c1C(=O)c1cc(Br)c(O)c(Br)c1 [BENZBROMARONE] | 95.5 |
| CC1=C(CC(=O)O)c2cc(F)ccc2/C1=C\c1ccc([S+](C)[O-])cc1 (stereo not given) | 58.8 |
| ClC(Cl)(Cl)Cl [CARBON TETRACHLORIDE] | 82.1 |
| CN(C)CCC=C1c2ccccc2COc2ccccc21 [DOXEPIN] | 87 |

Values from ChEMBL document CHEMBL3885861
